Tested on: Yap1 mRNA
Test: Dose-dependent inhibition of human Yap1 in SNU-449 cells (Example 9, RTS36584)
Assay type: cell-based
Details: 31.3 nM, free uptake, approximately 48 hours
Strand notation (5' to 3'): a small letter for the sugar, then the base; units joined by * are phosphorothioate-linked, units joined directly phosphodiester-linked; [ ] holds rarer units or linkages, { } end groups; capitals alone tell only the bases. e = 2'-O-(2-methoxyethyl) (MOE); k = constrained ethyl (cEt); [5mC] = 5-methylcytosine; d = 2'-deoxy (DNA); m = 2'-O-methyl
A collection of substances and their measured % UTC (Yap1 mRNA)

{"substance": "1198384 (kT*dA*dT*dT*dA*dG*dA*dG*dT*dA*dT*kG*eT*kG*eG*k[5mC]; antisense) [compound 1198384]", "target.desc": "Yap1 mRNA", "% UTC (Yap1 mRNA) / % UTC": 76}
{"substance": "1198638 (kA*kG*dA*dG*dT*dA*dT*dG*dT*dG*dG*d[5mC]*kA*eA*kT*eA; antisense) [compound 1198638]", "target.desc": "Yap1 mRNA", "% UTC (Yap1 mRNA) / % UTC": 70}
{"substance": "1198526 (kA*kA*dG*dT*dG*dT*dA*dT*dG*dT*d[5mC]*eA*kG*eA*kA*eG; antisense) [compound 1198526]", "target.desc": "Yap1 mRNA", "% UTC (Yap1 mRNA) / % UTC": 61}
{"substance": "1197213 (kT*kG*kT*dA*dT*dG*dT*d[5mC]*dA*dG*dA*dA*dG*kA*kG*kT; antisense) [compound 1197213]", "target.desc": "Yap1 mRNA", "% UTC (Yap1 mRNA) / % UTC": 87}
{"substance": "1200862 (kT*kT*kT*dA*dA*mA*dG*dT*dG*dT*dA*dT*dG*kT*k[5mC]*kA; antisense) [compound 1200862]", "target.desc": "Yap1 mRNA", "% UTC (Yap1 mRNA) / % UTC": 88}
{"substance": "1197179 (kT*kG*kG*dA*dA*dA*dT*dT*dG*dT*d[5mC]*dT*d[5mC]*kA*kT*kG; antisense) [compound 1197179]", "target.desc": "Yap1 mRNA", "% UTC (Yap1 mRNA) / % UTC": 58}

---

A collection of substances and their measured YAP1 (% UT)
System: Yap1 mRNA
Assay: Antisense inhibition of human Yap1 in SNU-449 cells by modified oligonucleotides, single dose (Example 5, RTS36584)
Format: cell-based
Settings: Table 50; Yap1 mRNA remaining as percent of untreated control (UT), SNU-449 cells, single dose
Strand notation (5' to 3'): a small letter for the sugar, then the base; units joined by * are phosphorothioate-linked, units joined directly phosphodiester-linked; [ ] holds rarer units or linkages, { } end groups; capitals alone tell only the bases. e = 2'-O-(2-methoxyethyl) (MOE); k = constrained ethyl (cEt); [5mC] = 5-methylcytosine; d = 2'-deoxy (DNA); m = 2'-O-methyl
result.type: YAP1 (% UT)

{"substance": "1197283 (kG*kA*kA*dA*mU*dT*dG*dT*d[5mC]*dT*d[5mC]*dA*dT*kG*k[5mC]*k[5mC]; antisense) [Compound 1197283]", "result.type": "YAP1 (% UT)", "readout.value": "29 % UT"}
{"substance": "1198589 (antisense k[5mC]*kA*kG*dA*dT*dT*dT*dA*dG*dG*dA*dT*kG*k[5mC]*kA*eT) [Compound 1198589]", "result.type": "YAP1 (% UT)", "readout.value": "24 % UT"}
{"substance": "1197287 (kT*kA*kT*dA*mU*dT*dA*dG*dA*dG*dT*dA*dT*kG*kT*kG) [Compound 1197287]", "result.type": "YAP1 (% UT)", "readout.value": "108 % UT"}
{"substance": "1197232 (antisense kA*kT*kA*dT*mG*dG*dA*dA*dA*dT*dT*dG*dT*k[5mC]*kT*k[5mC]) [Compound 1197232]", "result.type": "YAP1 (% UT)", "readout.value": "55 % UT"}

The measured values listed here are drawn from patent US11214803B2.
